biological target: Trypsin (Bos taurus); assay: Anti-trypsin activity (hydrolysis of TAME); format: biochemical; settings: molar concentration inhibiting 50% of TAME hydrolysis; read-out: id50, Trypsin
Sequence (P00760 24-246): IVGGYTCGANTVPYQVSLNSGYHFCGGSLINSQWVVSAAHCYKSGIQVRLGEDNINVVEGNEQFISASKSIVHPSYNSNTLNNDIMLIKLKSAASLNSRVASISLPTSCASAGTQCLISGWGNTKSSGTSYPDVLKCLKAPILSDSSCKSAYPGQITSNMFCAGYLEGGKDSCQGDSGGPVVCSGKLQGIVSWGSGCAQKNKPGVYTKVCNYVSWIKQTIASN
Listing of recorded pIC50 by entry.
Notebook: values listed as pIC50 are -log10 of the concentration (mol/L).

Below: 3 compounds and their reported pIC50.
CCC(=Cc1ccc(NC(=N)N)cc1)C(=O)Oc1ccc(C=CC(=N)N)cc1: 5.30
N=C(N)C=Cc1ccc(OC(=O)[C@H]2CC[C@H](CNC(=O)OCc3ccccc3)CC2)cc1: 5.30
CN(C)c1ccc(C(=O)Oc2ccc(C=CC(=N)N)cc2)cc1: 6.00

// next item, pIC50 requested
// sample CC(C)(C)c1ccc(C(=O)Oc2ccc(C=CC(=N)N)cc2)cc1 , its pIC50 was 5.30

----------
pIC50: −log10 of the molar value.
Reported pIC50, Thrombin (Bos taurus).

CCCCCCC(=O)Oc1ccc(C=CC(=N)N)cc1: < 5.00
N=C(N)C=Cc1ccc(OC(=O)[C@H]2CC[C@H](CNC(=O)OCc3ccccc3)CC2)cc1: < 5.00

Now for another entry.
pIC50 on Thrombin (Bos taurus) for N=C(N)C=Cc1ccc(OC(=O)CCc2ccccc2)cc1 is < 5.00

----------
inhibition at 100 µM for assorted compounds
system: complement; test: Inhibition of complement mediated hemolysis; type: cell-based; details: read-out: Inhibition of complement mediated hemolysis (%)
Value and unit, in that order.

N=C(N)C=Cc1ccc(OC(=O)c2ccc(CNC(=O)OCc3ccccc3)cc2)cc1 [Compound 33]: 92%
N=C(N)C=Cc1ccc(OC(=O)c2ccc(NC(=N)N)cc2)cc1 [Compound 35]: 100%
N=C(N)C=Cc1ccc(OC(=O)CCCc2ccccc2)cc1 [Compound 16]: 96%
N=C(N)C=Cc1ccc(OC(=O)[C@H]2CC[C@H](CNC(=O)OCc3ccccc3)CC2)cc1 [Compound 11]: 95%
CCCCCCC(=O)Oc1ccc(C=CC(=N)N)cc1 [Compound 3]: 98%
N=C(N)C=Cc1ccc(OC(=O)CCc2ccccc2)cc1 [Compound 15]: 80%

Consider now this further compound.
Recorded result, N=C(N)C=Cc1ccc(OC(=O)Cc2ccccc2)cc1 [Compound 13, 4-(β-amidinoethenyl)phenyl phenylacetate] , inhibition at 100 µM: 99%

----------
target: UniProtKB P00747; experiment: Anti-plasmin activity (hydrolysis of TAME); format: biochemical; conditions: molar concentration inhibiting 50% of TAME hydrolysis; read-out: id50, Plasmin
Sequence (P00747 581-810 limits assumed): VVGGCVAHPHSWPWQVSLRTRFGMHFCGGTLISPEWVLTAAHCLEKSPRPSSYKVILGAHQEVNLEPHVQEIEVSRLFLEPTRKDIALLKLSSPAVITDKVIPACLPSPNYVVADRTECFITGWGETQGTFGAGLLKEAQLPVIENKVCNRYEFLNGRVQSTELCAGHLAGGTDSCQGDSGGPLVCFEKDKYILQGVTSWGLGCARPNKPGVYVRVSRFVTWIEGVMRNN
Sequence (P00747 97-580 partner limits assumed): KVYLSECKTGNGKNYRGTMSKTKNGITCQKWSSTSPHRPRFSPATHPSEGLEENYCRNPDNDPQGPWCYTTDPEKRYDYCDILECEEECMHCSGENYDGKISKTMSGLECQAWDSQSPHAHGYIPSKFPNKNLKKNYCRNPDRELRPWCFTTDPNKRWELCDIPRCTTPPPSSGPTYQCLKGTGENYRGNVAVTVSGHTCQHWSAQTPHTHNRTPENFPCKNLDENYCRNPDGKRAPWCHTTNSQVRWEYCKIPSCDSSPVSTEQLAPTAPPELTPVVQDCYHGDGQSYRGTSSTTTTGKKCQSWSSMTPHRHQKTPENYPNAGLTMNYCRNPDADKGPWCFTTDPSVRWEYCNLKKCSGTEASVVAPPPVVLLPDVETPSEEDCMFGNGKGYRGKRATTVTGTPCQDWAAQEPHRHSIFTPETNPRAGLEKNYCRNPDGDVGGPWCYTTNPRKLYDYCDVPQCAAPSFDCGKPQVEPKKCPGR
Reported IC50 is given for each of the following compounds.

N=C(N)C=Cc1ccc(OC(=O)CCCCCN)cc1 [Compound 8]: > 10 µM
N=C(N)C=Cc1ccc(OC(=O)CCc2ccccc2)cc1 [Compound 15]: > 10 µM

Next compound, IC50 to be filled in.
Entry under test: CCC(=Cc1ccc(NC(=N)N)cc1)C(=O)Oc1ccc(C=CC(=N)N)cc1 [Compound 36] . Its IC50 was > 10 µM
